Ref: ChEMBL document CHEMBL5029194

# protocol text: Cmax in Sprague-Dawley rat at 10 mg/kg, po measured up to 24 hrs by LC-MS-MS analysis
# Type: ADME, organism-based
# Set-up: route oral, dose 10 mg/kg, time <=24
# conditions used: in vivo
readout name: Cmax (nM)

So what does the record say about Cmax for COc1ccc(S(=O)(=O)NC(=O)NC/C(F)=C2\CCCc3cnn(Cc4ccc(Cl)cc4Cl)c32)cc1Cl ? 9390

So what does the record say about Cmax for O=C(NS(=O)(=O)c1ccc(Cl)cc1)OC/C=C1\CCCc2cnn(Cc3ccc(Cl)cc3Cl)c21 ? 750

So what does the record say about Cmax for O=C(NC/C=C1\CCCc2cnn(Cc3ccc(Cl)cc3Cl)c21)NS(=O)(=O)c1ccc(Cl)cc1 ? 1110

So what does the record say about Cmax for O=C(NS(=O)(=O)c1cc(Cl)c(Cl)s1)OC/C=C1\CCCc2cnn(Cc3ccc(Cl)cc3Cl)c21 ? 130

[A] Cc1cc(S(=O)(=O)NC(=O)NC/C(F)=C2\CCCc3cnn(Cc4ccc(Cl)cc4Cl)c32)sc1Cl
[B] O=C(NC/C=C1\CCCc2cnn(Cc3ccc(Cl)cc3Cl)c21)NS(=O)(=O)c1cc(Cl)c(Cl)s1
Just curious, which one has the larger Cmax reading, A or B ? Provide the label of your selected option as the answer. A
